Tested on: HeLa
Assay Remarks: Primary qHTS to identify gynecologic anti-cancer compounds using libraries of approved drugs and bioactive compounds (AID 1345084); note: % is set by controls: 0 for no effect and ±100 for the full control effect; nearly all actives have a fitted effect of over 55% in size
Measurement Context: Gynecologic cancer cell panel viability, ATPlite luminescence, 48 h; series mostly up to 57.5 µM
Records with an inconclusive call do not appear. Activity calls are given as the source filed them. Calls come from the whole dose curve; as a rule, active = well fitted cell-killing curve with a large enough effect; inconclusive = small, poorly fitted or top-dose-only effect, or effect the other way; inactive = flat fitted curve, though single readings scatter.
Examples of compounds with documented activity change, negative = cytotoxicity follow.
Attribute Measured: activity change, negative = cytotoxicity

C[C@@H]1O[C@@H](O[C@H]2[C@@H](OC(=O)[C@]34CCC(C)(C)CC3C3=CCC5[C@@]6(C)C[C@H](O)[C@H](O[C@@H]7O[C@H](C(=O)O)[C@@H](O)[C@H](O)[C@H]7O)[C@@](C)(C(=O)O)C6CC[C@@]5(C)[C@]3(C)CC4)OC[C@H](O)[C@@H]2O)[C@H](O)[C@H](O)[C@H]1O[C@@H]1OC[C@@H](O)[C@H](O)[C@H]1O (stereo partly drawn) ... -0.61% [at 11.6 µM] (inactive)
C[C@@H]1O[C@@H](O[C@H]2[C@H](O)[C@@H](O)[C@H](OC[C@H]3O[C@@H](OC(=O)[C@]45CCC(C)(C)C[C@H]4C4=CCC6[C@@]7(C)CC[C@H](O[C@@H]8OC[C@H](O)[C@H](O[C@@H]9O[C@H](CO)[C@@H](O)[C@H](O)[C@H]9O)[C@H]8O)[C@@](C)(CO)C7CC[C@@]6(C)[C@]4(C)CC5)[C@H](O)[C@@H](O)[C@@H]3O)O[C@@H]2CO)[C@H](O)[C@H](O)[C@H]1O (stereo partly drawn) ... 8.6% [at 6.55 µM] (inactive)
CC1(C)CC[C@]2(C(=O)O[C@@H]3O[C@H](CO)[C@@H](O)[C@H](O)[C@H]3O)CC[C@]3(C)C(=CCC4[C@@]5(C)CC[C@H](O[C@@H]6O[C@H](C(=O)O)[C@@H](O)[C@H](O[C@@H]7O[C@H](CO)[C@H](O)[C@H](O)[C@H]7O)[C@H]6O)C(C)(C)C5CC[C@]43C)C2C1 (stereo partly drawn) ... -6.39% [at 11.6 µM] (inactive)

----------
Test system: HaCat
Assay Remarks: Cytotoxic Profiling of Annotated Libraries Using Quantitative High-Throughput Screening (AID 1296008); note: % is set by controls: 0 for no effect and ±100 for the full control effect; nearly all actives have a fitted effect of over 60% in size
Measurement Context: Five cell lines viability, CellTiter-Glo ATP luminescence, 48-72 h; hits give low values
Results filed as inconclusive are left out.
Attribute Measured: max response (%)

CCc1ccc(Cc2ccc3c(c2)[C@]2(OC3)O[C@H](CO)[C@@H](O)[C@H](O)[C@H]2O)cc1 ... 3.62
C=C1[C@H](OC(C)=O)[C@H]2[C@@H](OC(C)=O)[C@](C)(OC(C)=O)C[C@]2(OC(C)=O)C(=O)[C@H](C)/C=C/C(C)(C)C(=O)[C@H](OC(=O)C(C)C)[C@H]1OC(C)=O ... -2.43
COc1ccc(C(=O)C2CCN(CC(=O)N(Cc3nc4c(c(=O)[nH]3)COCC4)CC3CC3)CC2)cc1 ... -5.45
CCOc1ccc(NC(=S)N2CCC(C(O)(c3ccccc3)c3ccccc3)CC2)cc1 ... 1.92
CC(O)(CC(=O)O)CC(=O)OCc1ccc(O[C@@H]2O[C@H](CO)[C@@H](O)[C@H](O)[C@H]2O)cc1 (stereo partly specified) ... 1.6
Cc1csc(NC(=O)c2ccc(COc3cccc(Cl)c3)o2)n1 ... 2.26
CO[C@H]1C[C@@H]2CC[C@@H](C)[C@@](O)(O2)C(=O)C(=O)N2CCCC[C@H]2C(=O)O[C@H]([C@H](C)C[C@@H]2CC[C@H](n3cnnn3)[C@H](OC)C2)CC(=O)[C@H](C)/C=C(\C)[C@@H](O)[C@@H](OC)C(=O)[C@H](C)C[C@H](C)/C=C/C=C/C=C/1C ... -3.38
CC(=O)OC1CC2(C)C3=CCC4(C)C5C(O)C(O)C(C(C)C)C5(C)CCC4(C)C3CCC2C(C)(C)C1OC1OC(CO)C(O)C(O)C1O (stereo unspecified) ... -3
COc1ccc2c(OC)c3ccoc3nc2c1OC ... -7.51
C[C@@H]1O[C@@H](O[C@H]2[C@H](O)[C@@H](O)[C@H](O[C@H]3[C@H](O[C@H]4CC[C@@]5(C)C(=CC[C@@H]6C5CC[C@]5(C)[C@@H]7[C@H](C[C@@H]65)O[C@]5(CC[C@@](C)(CO[C@@H]6O[C@H](CO)[C@@H](O)[C@H](O)[C@H]6O)O5)[C@H]7C)C4)O[C@H](CO)[C@@H](O)[C@@H]3O)O[C@@H]2CO)[C@H](O)[C@H](O)[C@H]1O (stereo partly specified) ... -8.19
C=C[C@@H]1[C@H](O[C@@H]2O[C@H](CO)[C@@H](O)[C@H](O)[C@H]2O)OC=C(C(=O)O)[C@H]1CCOC(=O)/C=C/c1ccc(O)c(O)c1 ... -20.8
N#C[C@@H]1CCCN1C(=O)CNC12CC3CC(CC(O)(C3)C1)C2 ... -2.22
CC(C)=CCC/C(C)=C/Cc1ccc(O)c(C2OC(=O)c3cc(C(=O)O)cc(O)c32)c1O (stereo unspecified) ... -20.9
CC(=O)c1ccc2c(c1)C(O)C(C(C)(C)O)O2 (stereo unspecified) ... 1.04
Nc1ccccc1N ... 3.79
CC12CCC3c4ccc(OC5OC(C(=O)O)C(O)C(O)C5O)cc4CCC3C1CCC2O (stereo unspecified) ... 0.389
